Just for reference, PubChem BioAssay (NCI) is where these values come from.

Tested on: OVCAR-4 ovarian
Test: NCI tumour cell line growth inhibition, 48 h
Give measured TGI for each item. Keep answers brief.

O=C1CS/C(=N/N=C/c2cn(Cc3ccc(Cl)cc3Cl)c3ccccc23)N1 ... > 100 µM
O=C1N/N=C\c2ccc(cc2)OCc2cccc(n2)COc2ccc(cc2)/C=N\NC1=O ... > 25 µM
Clc1ccc([O][In]([O]c2ccc(Cl)cn2)[O]c2ccc(Cl)cn2)nc1 ... > 100 µM
CCCCCCCCCCCCOCCOCCOCCOCCOCCOCC(=O)NC(Cc1ccccc1)C(=O)Oc1ccc([N+](=O)[O-])cc1 (stereo unspecified) ... > 100 µM
N=C(N)SCc1cn2ccccc2n1 ... > 100 µM
CC(C)(C)c1cc(/C=C2/NC(=O)NC2=O)cc(C(C)(C)C)c1O ... 26 µM

Give one value of TGI per listed compound.
1. CC(O)CNC1=CC(=O)C(=O)c2ccccc21 (stereo unspecified)
2. COC(=O)c1ccc2c(c1)C(NC(C)=O)CCc1cc(OC)c(OC)c(OC)c1-2 (stereo unspecified)
3. CC1(C)N=C(N)N=C(N)N1c1ccc(CCc2ccccc2)c(Cl)c1
4. CCc1ccccc1NC(=O)C(=O)C(C(=O)c1ccc(OC)cc1)c1ccc(OC)cc1 (stereo unspecified)
5. CC1(C)CCC(C)(C)c2cc(C(=O)Nc3ccc(C(=O)O)cc3)ccc21

["26 µM", "> 100 µM", "13.1 µM", "> 100 µM", "67.1 µM"]

Give one value of TGI per listed compound.
1. COc1cc(OC)cc(Oc2nc3cc(F)c(F)cc3nc2-c2ccccc2)c1
2. CN(C)CCNc1c([N+](=O)[O-])sc2ccc(Cl)cc12
3. O=C(O)C1=NN(c2ccc(S(=O)(=O)O)cc2)C2(C1)C(Cl)C(=O)N2c1nc2ccccc2s1 (stereo unspecified)
4. COc1cc2c3cc1Oc1c(OC)c(OC)cc4c1C(Cc1ccc(O)c(c1)Oc1ccc(cc1)CC3N(C)CC2)CN(C)C4 (stereo unspecified)
5. O=CN1CCN(C(=O)c2ccco2)C1=S
6. CCC(=O)Nc1ccc(NS(=O)(=O)c2ccc(Cl)cc2)cc1
7. O=P(OCc1ccccc1)(OCc1ccccc1)C(O)/C=C/c1ccccc1 (stereo unspecified)
8. Cc1cc2c(cc1C)NC1=C(N2)OC(c2c[nH]c3ccc(COc4ccccc4)cc23)C1=O (stereo unspecified)

1: > 100 µM; 2: > 100 µM; 3: 35.3 µM; 4: 39.1 µM; 5: 46.6 µM; 6: > 100 µM; 7: 56.1 µM; 8: > 100 µM

Give one value of TGI per listed compound.
1. Nc1cc2c3c(cccc3c1)NC2=O
2. S=c1[nH]nc(Cn2c3ccc(Br)cc3c3nc4ccccc4nc32)n1C1CCCCC1

1. > 100 µM
2. > 100 µM
